Below is a list of entries, each paired with its recorded fraction of GFP-LC3-positive cells value.
# Tested on: CbCln3 +/+ GFP-LC3 cerebellar neuronal cells
# methodDescription: fraction of GFP-LC3-positive cells (≥5 vesicles/cell); higher = more autophagosome accumulation
Whole data set: some 1,700 compounds, median “fraction of GFP-LC3-positive cells (≥5 vesicles/cell)” near 0.058, cut for the highest 2% near 0.59. The sample as a whole holds a higher share of the highest values than the screen did.
Reply: number alone, nothing else.

NC(CO)(CO)CO.O=C(c1ccccc1)c1ccc2n1CCC2C(=O)O (stereo unspecified)    0.0452
CCN(CC)CCNC(=O)COc1ccc(OC)cc1.Cl [Mefexamide hydrochloride]    0.0712
Nc1ncn(C2O[C@H](CO)[C@@H](O)[C@H]2O)c(=O)n1 (stereo partly specified)    0.745

Ask: Record lookup: for CbCln3 +/+ GFP-LC3 cerebellar neuronal cells, what fraction of GFP-LC3-positive cells belongs to "O[C@H]1[C@H]2c3cc4c(cc3CN3CCC(=C[C@@H]1O)[C@H]23)OCO4" ?
Reply: 0.424

Ask: Record lookup: for CbCln3 +/+ GFP-LC3 cerebellar neuronal cells, what fraction of GFP-LC3-positive cells belongs to "CC/C(=C(/CC)c1ccc(O)cc1)c1ccc(O)cc1" ?
Reply: 0.0323

Ask: Record lookup: for CbCln3 +/+ GFP-LC3 cerebellar neuronal cells, what fraction of GFP-LC3-positive cells belongs to COc1cccc2c1C(=O)c1c(O)c3c(c(O)c1C2=O)C[C@@](O)(C(=O)CO)C[C@@H]3O[C@H]1C[C@H](N)[C@H](O)[C@H](C)O1.Cl [Doxorubicin hydrochloride] ?
Reply: 0.482

Ask: Record lookup: for CbCln3 +/+ GFP-LC3 cerebellar neuronal cells, what fraction of GFP-LC3-positive cells belongs to CN1CCN2c3ccccc3Cc3ccccc3C2C1.Cl (stereo unspecified) [Mianserine hydrochloride] ?
Reply: 0.0536

Ask: Record lookup: for CbCln3 +/+ GFP-LC3 cerebellar neuronal cells, what fraction of GFP-LC3-positive cells belongs to CC/C=C\C/C=C\C/C=C\C/C=C\CCCCC(=O)O [6(Z), 9(Z), 12(Z), 15(Z)-Octadecatetraenoic acid] ?
Reply: 0.0591

Ask: Record lookup: for CbCln3 +/+ GFP-LC3 cerebellar neuronal cells, what fraction of GFP-LC3-positive cells belongs to "O=S(=O)(NCCNC/C=C/c1ccc(Br)cc1)c1cccc2cnccc12" ?
Reply: 0.0303

Ask: Record lookup: for CbCln3 +/+ GFP-LC3 cerebellar neuronal cells, what fraction of GFP-LC3-positive cells belongs to "Nc1ccn([C@H]2CC[C@@H](CO)O2)c(=O)n1" ?
Reply: 0.11

Ask: Record lookup: for CbCln3 +/+ GFP-LC3 cerebellar neuronal cells, what fraction of GFP-LC3-positive cells belongs to "CCCC[C@@H](C=O)NC(=O)[C@H](CC(C)C)NC(=O)OCc1ccccc1" ?
Reply: 0.088

Ask: Record lookup: for CbCln3 +/+ GFP-LC3 cerebellar neuronal cells, what fraction of GFP-LC3-positive cells belongs to CC(N/C(=N/C#N)Nc1ccncc1)C(C)(C)C (stereo unspecified) ?
Reply: 0.0667

Ask: Record lookup: for CbCln3 +/+ GFP-LC3 cerebellar neuronal cells, what fraction of GFP-LC3-positive cells belongs to "CC(C)C[C@@H](C=O)NC(=O)[C@H](CC(C)C)NC(=O)OCc1ccccc1" ?
Reply: 0.0921

Ask: Record lookup: for CbCln3 +/+ GFP-LC3 cerebellar neuronal cells, what fraction of GFP-LC3-positive cells belongs to Cc1c(OCC(F)(F)F)ccnc1CS(=O)c1nc2ccccc2[nH]1 (stereo unspecified) ?
Reply: 0.0343

Ask: Record lookup: for CbCln3 +/+ GFP-LC3 cerebellar neuronal cells, what fraction of GFP-LC3-positive cells belongs to "CC(/C=C/C(=O)NO)=C\[C@@H](C)C(=O)c1ccc(N(C)C)cc1" ?
Reply: 0.799

Ask: Record lookup: for CbCln3 +/+ GFP-LC3 cerebellar neuronal cells, what fraction of GFP-LC3-positive cells belongs to COc1cccc2c1C(=O)c1c(O)c3c(c(O)c1C2=O)C[C@@](O)(C(C)=O)C[C@@H]3O[C@H]1C[C@H](N)[C@H](O)[C@H](C)O1.Cl [Daunorubicin hydrochloride] ?
Reply: 0.568

Ask: Record lookup: for CbCln3 +/+ GFP-LC3 cerebellar neuronal cells, what fraction of GFP-LC3-positive cells belongs to CN(Cc1cnc2nc(N)nc(N)c2n1)c1ccc(C(=O)NC(CCC(=O)O)C(=O)O)cc1 (racemic) [Amethopterin (R,S)] ?
Reply: 0.0411

Ask: Record lookup: for CbCln3 +/+ GFP-LC3 cerebellar neuronal cells, what fraction of GFP-LC3-positive cells belongs to "CC/C=C\C/C=C\C/C=C\C/C=C\C/C=C\CCCC(=O)O" ?
Reply: 0.0669

Ask: Record lookup: for CbCln3 +/+ GFP-LC3 cerebellar neuronal cells, what fraction of GFP-LC3-positive cells belongs to "O=C(/C=C/c1ccc(O)c(O)c1)O[C@@H]1C[C@](O)(C(=O)O)C[C@@H](O)[C@H]1O" ?
Reply: 0.0755

Ask: Record lookup: for CbCln3 +/+ GFP-LC3 cerebellar neuronal cells, what fraction of GFP-LC3-positive cells belongs to "c1ccc2c(Cc3c[nH]c4ccccc34)c[nH]c2c1" ?
Reply: 0.0651

Ask: Record lookup: for CbCln3 +/+ GFP-LC3 cerebellar neuronal cells, what fraction of GFP-LC3-positive cells belongs to "CCCCCCCC/C=C\CCCCCCCCOC[C@H](COP(=O)([O-])OCC[N+](C)(C)C)OC(C)=O" ?
Reply: 0.0408
